Attribution: PubChem BioAssay (NCI)

EXPERIMENT_SUMMARY: NCI Yeast Anticancer Drug Screen. Data for the rad50EPP+ strain (AID 151)
CONDITION_SET: S. cerevisiae rad50 mutant strain, at 33.0 µM, active compounds read high
Protocol: Growth inhibition of yeast strains with defined genetic alterations is measured as a screen for potential anti-cancer activity. Selected strains with alterations in DNA damage repair or cell cycle control were exposed to compounds and growth inhibition was measured relative to vehicle treated controls. The strain used in this assay is rad50EPP+
Compounds without any hit were thinned out: in the full panel of roughly 79,000, 15% have a hit.
# cutoff 40% applies to growth inhibition; >= gives true, < gives false

COMPOUND | LABEL_CLASS
O=C(COc1ccc(Cl)cc1Cl)NO | false
CCC1(O)C(=O)OCc2c1cc1n(c2=O)Cc2cc3ccccc3nc2-1 (stereo not given) | true
COC(=O)C1=C(C(=O)OC)C2OC1c1cc3ccccc3cc12 | true
CCN(CCCl)CCCCNc1c2ccccc2nc2ccc(OC)cc12 | true
